target: Tyrosine-protein kinase Lck (Homo sapiens, UniProt P06239)
Sequence (P06239 whole entry): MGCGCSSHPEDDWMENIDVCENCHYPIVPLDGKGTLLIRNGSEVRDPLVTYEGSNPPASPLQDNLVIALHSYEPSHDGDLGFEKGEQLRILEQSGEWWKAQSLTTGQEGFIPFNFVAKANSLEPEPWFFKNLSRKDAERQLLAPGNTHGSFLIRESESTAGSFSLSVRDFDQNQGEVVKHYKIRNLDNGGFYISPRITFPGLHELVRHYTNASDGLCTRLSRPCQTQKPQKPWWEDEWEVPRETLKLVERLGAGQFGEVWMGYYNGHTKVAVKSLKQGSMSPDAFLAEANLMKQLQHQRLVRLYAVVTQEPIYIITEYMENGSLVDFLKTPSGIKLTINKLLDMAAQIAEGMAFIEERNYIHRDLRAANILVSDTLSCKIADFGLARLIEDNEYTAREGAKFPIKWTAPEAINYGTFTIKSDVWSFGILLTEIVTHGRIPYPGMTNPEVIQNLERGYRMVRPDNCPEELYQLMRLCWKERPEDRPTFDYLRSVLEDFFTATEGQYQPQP
pIC50: −log10 of the molar value.

- itemSmiles: "O=C(Nc1cccc(-c2ccnc3cc(-c4ccncc4)nn23)c1)c1cccc(C(F)(F)F)c1"
  pIC50: "< 4.30"

----------
target: Serine/threonine-protein kinase B-raf (Homo sapiens, UniProt P15056)
Sequence (P15056 whole entry): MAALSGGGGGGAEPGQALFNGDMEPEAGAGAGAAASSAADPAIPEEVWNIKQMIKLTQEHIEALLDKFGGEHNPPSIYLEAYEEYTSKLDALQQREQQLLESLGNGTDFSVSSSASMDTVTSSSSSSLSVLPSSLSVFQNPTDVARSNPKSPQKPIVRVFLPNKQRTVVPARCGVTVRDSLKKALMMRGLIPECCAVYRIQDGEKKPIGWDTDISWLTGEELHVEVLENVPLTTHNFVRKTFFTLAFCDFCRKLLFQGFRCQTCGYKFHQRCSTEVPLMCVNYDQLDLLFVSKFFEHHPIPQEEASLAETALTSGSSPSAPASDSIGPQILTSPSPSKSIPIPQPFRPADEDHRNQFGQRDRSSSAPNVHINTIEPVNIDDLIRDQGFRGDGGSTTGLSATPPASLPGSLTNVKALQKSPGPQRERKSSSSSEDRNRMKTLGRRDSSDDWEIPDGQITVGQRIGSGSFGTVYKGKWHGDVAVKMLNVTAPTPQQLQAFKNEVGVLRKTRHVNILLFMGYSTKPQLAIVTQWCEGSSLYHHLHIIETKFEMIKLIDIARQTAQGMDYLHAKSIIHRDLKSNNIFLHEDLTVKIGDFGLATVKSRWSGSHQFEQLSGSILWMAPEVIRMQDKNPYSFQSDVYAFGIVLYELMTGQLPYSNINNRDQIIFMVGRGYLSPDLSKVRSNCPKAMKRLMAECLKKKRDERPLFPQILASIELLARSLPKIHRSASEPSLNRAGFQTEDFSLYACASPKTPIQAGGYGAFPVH
assayReadout: IC50 (nM)

- itemSmiles: "O=C(Nc1cccc(-c2ccnc3cc(-c4ccncc4)nn23)c1)c1ccc(Cl)c(C(F)(F)F)c1"
  resultQualifier: "="
  assayResult: 60
- itemSmiles: "O=C(Nc1cccc(-c2ccnc3cc(-c4ccnc(NCCCc5ncc[nH]5)c4)nn23)c1)c1cccc(C(F)(F)F)c1"
  resultQualifier: "="
  assayResult: 66
- itemSmiles: "O=C(Nc1cccc(-c2ccnc3cc(-c4ccnc(NCCCN5CCCC5=O)c4)nn23)c1)c1cccc(C(F)(F)F)c1"
  resultQualifier: "="
  assayResult: 110
- itemSmiles: "O=C(Nc1cccc(-c2ccnc3cc(-c4cccnc4)nn23)c1)c1cccc(C(F)(F)F)c1"
  resultQualifier: ">"
  assayResult: 10000
